// reported EC50 for each item listed
- TARGET OR TEST SYSTEM: NL20 human bronchial epithelial cells expressing human Z-AAT (Homo sapiens, UniProt P01009, E366K)
- Construct: expressed in transfected cells; host or cells: NL20 human bronchial epithelial cells (NL20-SI cell line), doxycycline added with compounds
- Sequence (P01009 25-418 E366K): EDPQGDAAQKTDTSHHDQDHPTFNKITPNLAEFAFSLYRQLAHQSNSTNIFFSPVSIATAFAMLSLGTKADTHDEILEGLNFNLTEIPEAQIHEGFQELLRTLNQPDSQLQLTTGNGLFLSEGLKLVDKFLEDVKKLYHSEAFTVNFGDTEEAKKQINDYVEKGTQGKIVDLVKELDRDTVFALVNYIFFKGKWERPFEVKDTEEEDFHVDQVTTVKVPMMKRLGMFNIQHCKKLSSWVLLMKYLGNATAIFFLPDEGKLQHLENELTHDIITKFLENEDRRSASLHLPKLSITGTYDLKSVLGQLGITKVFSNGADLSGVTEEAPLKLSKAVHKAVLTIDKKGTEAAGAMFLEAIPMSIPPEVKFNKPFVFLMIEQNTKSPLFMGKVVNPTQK
- EXPERIMENT: AAT Function Assay (MSD Assay NL20-SI Cell Line)
- Assay type: cell-based
- EXPERIMENTAL SETUP: functionally active AAT in supernatant of NL20 cells expressing human Z-AAT, MSD readout; read-out: NL20 Func. (EC50)

Some entries whose results are on file:
Cc1cc(-c2c(C3CCOCC3)n(-c3ccc(C(=O)O)cc3)c3cc4[nH]ncc4cc23)ccn1 [Compound 333] = > 1 µM
CC(C)c1c(-c2cc(F)c(C(=O)O)c(F)c2)c2cc3[nH]ncc3cc2n1-c1ccc(F)cc1 [Compound 98] = 0.4 to 1 µM
CNS(=O)(=O)c1ccc(-c2c(C3CCOCC3)n(-c3ccc(F)cc3)c3cc4c(C)n[nH]c4cc23)cc1 [Compound 134] = > 1 µM
O=C(O)c1cc(-c2c(C3CCOCC3)n(-c3ccc(F)cc3)c3cc4cn[nH]c4cc23)ccc1O [Compound 27] = > 1 µM
CS(=O)(=O)C1CC(NC(=O)c2ccc(-c3c(C4CCOCC4)n(-c4ccc(F)cc4)c4cc5cn[nH]c5cc34)cc2)C1 (centres unmarked) [Compound 149] = > 1 µM

# EC50 of CC(C)(CC#N)c1c(-c2ccc(C(=O)O)cc2)c2cc3[nH]ncc3cc2n1C1CCCCC1 [Compound 317] = 0.4 to 1 µM

Record CC(C)(CC#N)c1c(-c2ccc(C(=O)O)c(F)c2)c2cc3[nH]ncc3cc2n1-c1ccc(F)cc1 [Compound 187] . Reported EC50: 0.4 to 1 µM

Recorded EC50 (compound OCc1ccc(-c2c(C3CCOCC3)n(-c3ccc(F)cc3)c3cc4cn[nH]c4cc23)cc1 [Compound 284] ): < 0.4 µM

Memo: COCC(C)(C)c1c(-c2ccc(C(=O)N[C@@H]3C(=O)N[C@H]3C)cc2)c2cc3[nH]ncc3cc2n1-c1ccc(F)cc1 [Compound 238] , reported EC50: 0.4 to 1 µM

// EC50 value for Cc1cc(-c2c(C3CCOCC3)n(-c3ccc(C(N)=O)cc3)c3cc4[nH]ncc4cc23)ccn1 [Compound 334] : > 1 µM

Just so you know, measured EC50 for CC(C)(CO)n1cc(-c2c(C3CCOCC3)n(-c3ccc(F)cc3)c3cc4cn[nH]c4cc23)cn1 [Compound 167] came out at > 1 µM

Value of EC50 reported for the compound COCC1(c2c(-c3ccc(C(=O)O)cc3)c3cc4[nH]ncc4cc3n2-c2ccc(F)cc2)CCC1 [Compound 117] is < 0.4 µM

Recorded values, source patent US12331057B2.
